// provenance: patent US20050209278A1

- assaySystem: MMP-14 (Homo sapiens, UniProt P50281)
- Construct: The catalytic domain enzyme was expressed in E. coli inclusion bodies, solubilized in urea; made in house
- assayDetails: In vitro MMP inhibition, Ki determination (fluorogenic substrate II)
- Assay type: biochemical
- setupConditions: value not in parenthesis; read-out: MMP-14 Ki
propertyName: Ki

smilesrepresentation=CCCCOc1ccc(N2CCN(S(=O)(=O)C3(C(=O)NO)CCN(c4cccc(C)c4)CC3)CC2)cc1 propertyname=Ki result="> 10 µM"
smilesrepresentation=O=C(NO)C1(S(=O)(=O)N2CCN(c3ccc(-c4ccc(F)cc4)cc3)CC2)CCOCC1 propertyname=Ki result="0.621 µM"
smilesrepresentation=COCCN1CCC(C(=O)NO)(S(=O)(=O)N2CCN(c3nc4ccccc4o3)CC2)CC1 propertyname=Ki result="6.84 µM"
smilesrepresentation=Cc1ccc(-c2ccc(N3CCN(S(=O)(=O)C4(C(=O)NO)CCOCC4)CC3)cc2)cc1 propertyname=Ki result="> 10 µM"
